biological target: human kappa opioid receptor (Homo sapiens, UniProt P41145); construct: expressed in transfected cells; host or cells: Chinese hamster ovary cells (CHO-hKOR), membranes; experiment: biochemical; format: binding
Sequence (P41145 whole entry): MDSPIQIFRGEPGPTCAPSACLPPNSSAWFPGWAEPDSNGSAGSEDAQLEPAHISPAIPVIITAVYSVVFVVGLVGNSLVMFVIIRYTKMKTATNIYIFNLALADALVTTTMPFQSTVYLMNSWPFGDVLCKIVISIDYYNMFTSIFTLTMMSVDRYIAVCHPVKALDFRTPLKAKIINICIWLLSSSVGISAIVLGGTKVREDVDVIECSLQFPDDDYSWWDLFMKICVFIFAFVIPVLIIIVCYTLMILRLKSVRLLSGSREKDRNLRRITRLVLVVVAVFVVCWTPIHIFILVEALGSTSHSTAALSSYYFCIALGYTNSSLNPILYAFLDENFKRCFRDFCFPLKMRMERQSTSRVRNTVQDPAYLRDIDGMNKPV
pKi: −log10 of the molar value.
quantity-kind: pKi

| compound | readout-qualifier | assay-result |
| --- | --- | --- |
| CCOC1CC(C(=O)OC)C2(C)CCC3C(=O)OC(c4ccoc4)CC3(C)C2C1=O (stereo not drawn) [Compound 206b, 2-epi-(O-ethyl)-salvinorin B] | < | 5.00 |
| COC(=O)[C@@H]1C[C@@H](N)C(=O)C2[C@@]1(C)CC[C@H]1C(=O)O[C@H](c3ccoc3)C[C@]21C (stereo partly drawn) [Compound 207b, 2-epi-aminosalvinorin] | = | 6.65 |
| CCCO[C@H]1C[C@@H](C(=O)OC)[C@]2(C)CC[C@H]3C(=O)O[C@H](c4ccoc4)C[C@]3(C)C2C1=O (stereo partly drawn) | = | 7.54 |
| COC(=O)C1=CC(=O)C=C2[C@@]1(C)CC[C@H]1C(=O)O[C@H](c3ccoc3)C[C@]21C | < | 6.21 |
| CCC(=O)O[C@H]1C[C@@H](C(=O)OC)[C@]2(C)CC[C@H]3C(=O)O[C@H](c4ccoc4)C[C@]3(C)C2C1=O (stereo partly drawn) | = | 8.14 |
| CC(=O)O[C@H]1C[C@@H](CO)[C@]2(C)CCC3C(=O)O[C@H](c4ccoc4)C[C@]3(C)[C@H]2C1=O (stereo partly drawn) | < | 5.00 |
